Experimental target: human insulin receptor isoform A (human, UniProt P06213-2 28-1370)
Sequence (P06213 other isoform, or with tags, fused parts or gaps): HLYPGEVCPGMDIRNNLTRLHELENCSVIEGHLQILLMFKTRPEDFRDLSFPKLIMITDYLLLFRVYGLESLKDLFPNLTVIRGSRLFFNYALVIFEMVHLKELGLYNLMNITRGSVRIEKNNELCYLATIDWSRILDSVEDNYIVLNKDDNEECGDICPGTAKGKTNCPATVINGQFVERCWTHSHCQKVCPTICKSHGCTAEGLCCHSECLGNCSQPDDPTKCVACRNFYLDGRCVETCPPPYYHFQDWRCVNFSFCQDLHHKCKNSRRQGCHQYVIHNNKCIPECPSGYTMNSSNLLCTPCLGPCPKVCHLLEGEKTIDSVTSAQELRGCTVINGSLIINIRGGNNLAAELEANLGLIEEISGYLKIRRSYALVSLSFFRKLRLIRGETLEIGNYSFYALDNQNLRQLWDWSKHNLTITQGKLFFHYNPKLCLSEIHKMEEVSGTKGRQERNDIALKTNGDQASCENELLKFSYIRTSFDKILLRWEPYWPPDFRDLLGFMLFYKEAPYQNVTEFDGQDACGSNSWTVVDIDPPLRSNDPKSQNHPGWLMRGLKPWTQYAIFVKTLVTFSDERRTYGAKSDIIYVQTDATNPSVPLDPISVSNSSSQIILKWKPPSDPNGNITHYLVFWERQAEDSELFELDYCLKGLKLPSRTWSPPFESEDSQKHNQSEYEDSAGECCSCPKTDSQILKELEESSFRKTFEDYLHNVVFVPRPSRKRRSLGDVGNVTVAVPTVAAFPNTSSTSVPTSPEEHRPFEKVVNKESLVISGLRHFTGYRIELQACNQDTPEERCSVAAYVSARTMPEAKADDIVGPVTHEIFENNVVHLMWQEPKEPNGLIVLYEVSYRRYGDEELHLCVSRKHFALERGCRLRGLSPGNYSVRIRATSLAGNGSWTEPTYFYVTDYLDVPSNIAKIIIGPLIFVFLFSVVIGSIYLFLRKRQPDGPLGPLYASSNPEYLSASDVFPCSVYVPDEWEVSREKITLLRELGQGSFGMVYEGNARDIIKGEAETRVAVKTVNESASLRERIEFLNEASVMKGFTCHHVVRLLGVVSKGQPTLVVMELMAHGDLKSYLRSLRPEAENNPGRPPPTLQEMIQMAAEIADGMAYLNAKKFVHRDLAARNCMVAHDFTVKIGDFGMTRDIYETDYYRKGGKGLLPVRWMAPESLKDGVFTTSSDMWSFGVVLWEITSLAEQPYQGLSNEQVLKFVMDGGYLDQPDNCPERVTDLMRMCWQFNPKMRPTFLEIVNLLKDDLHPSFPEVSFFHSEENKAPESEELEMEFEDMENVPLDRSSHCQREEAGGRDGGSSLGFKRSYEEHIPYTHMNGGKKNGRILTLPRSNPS
Procedure summary: cell-based or functional assay
Below, each entry is listed with its recorded hIR-A phosphorylation [EC50 nM] mean.
Express your answer in nM, writing the number without its unit.

{"Binder": "scl-Fc fusion protein INS005 (Fc fusion) SFVNQHLCGSHLVEALHLVCGERGFAYTDKTEEYPGDVGIVEQCCTSICSLEQLENYCGGEAEDLQVGQVELGGGPGAGSLQPEGSLQGGPSVFLFPPKPKDTLMISRTPEVTCVVVDVSHEDPEVKFNWYVDGVEVHNAKTKPREEQYNSTYRVVSVLTVLHQDWLNGKEYKCKVSNKALPAPIEKTISKAKGQPREPQVYTLPPSRDELTKNQVSLTCLVKGFYPSDIAVEWESNGQPENNYKTTPPVLDSDGSFFLYSKLTVDKSRWQQGNVFSCSVMHEALHNHYTQKSLSLSPGGGGGSAESKYGPPCPPCPA", "Unit info": "nM", "hIR-A phosphorylation [EC50 nM] mean": 1510}
{"Binder": "scl-Fc fusion protein INS018 (Fc fusion) FVNQHLCGSHLVEALELVCGERGFHYTPKTGSYPGGVGIVEQCCTSICSLSQLEDYCGGEAEDLQVGQVELGGGPGAGSLQPEGSLQGGPSVFLFPPKPKDTLMISRTPEVTCVVVDVSHEDPEVKFNWYVDGVEVHNAKTKPREEQYNSTYRVVSVLTVLHQDWLNGKEYKCKVSNKALPAPIEKTISKAKGQPREPQVYTLPPSRDELTKNQVSLTCLVKGFYPSDIAVEWESNGQPENNYKTTPPVLDSDGSFFLYSKLTVDKSRWQQGNVFSCSVMHEALHNHYTQKSLSLSPGGGGGSAESKYGPPCPPCPA", "Unit info": "nM", "hIR-A phosphorylation [EC50 nM] mean": 536}
{"Binder": "scl-Fc fusion protein INS011 (Fc fusion) SFVNQHLCGSHLVEALHLVCGERGFAYTPKTGSYPGGVGIVEQCCTSICSLEQLENYCGGEAEDLQVGQVELGGGPGAGSLQPEGSLQGGPSVFLFPPKPKDTLMISRTPEVTCVVVDVSHEDPEVKFNWYVDGVEVHNAKTKPREEQYNSTYRVVSVLTVLHQDWLNGKEYKCKVSNKALPAPIEKTISKAKGQPREPQVYTLPPSRDELTKNQVSLTCLVKGFYPSDIAVEWESNGQPENNYKTTPPVLDSDGSFFLYSKLTVDKSRWQQGNVFSCSVMHEALHNHYTQKSLSLSPGGGGGSAESKYGPPCPPCPA", "Unit info": "nM", "hIR-A phosphorylation [EC50 nM] mean": 414}
{"Binder": "scl-Fc fusion protein INS010 (Fc fusion) SFVNQHLCGSHLVEALHLVCGERGFAYTPKTEEYPGDVGIVEQCCTSICSLEQLENYCGGEAEDLQVGQVELGGGPGAGSLQPEGSLQGGPSVFLFPPKPKDTLMISRTPEVTCVVVDVSHEDPEVKFNWYVDGVEVHNAKTKPREEQYNSTYRVVSVLTVLHQDWLNGKEYKCKVSNKALPAPIEKTISKAKGQPREPQVYTLPPSRDELTKNQVSLTCLVKGFYPSDIAVEWESNGQPENNYKTTPPVLDSDGSFFLYSKLTVDKSRWQQGNVFSCSVMHEALHNHYTQKSLSLSPGGGGGSAESKYGPPCPPCPA", "Unit info": "nM", "hIR-A phosphorylation [EC50 nM] mean": 1780}

What does the data say about its hIR-A phosphorylation [EC50 nM] mean? Entry: scl-Fc fusion protein INS008 (Fc fusion) SFVNQHLCGSHLVEALELVCGERGFHYTDKTGSYPGGVGIVEQCCTSICSLEQLENYCGGEAEDLQVGQVELGGGPGAGSLQPEGSLQGGPSVFLFPPKPKDTLMISRTPEVTCVVVDVSHEDPEVKFNWYVDGVEVHNAKTKPREEQYNSTYRVVSVLTVLHQDWLNGKEYKCKVSNKALPAPIEKTISKAKGQPREPQVYTLPPSRDELTKNQVSLTCLVKGFYPSDIAVEWESNGQPENNYKTTPPVLDSDGSFFLYSKLTVDKSRWQQGNVFSCSVMHEALHNHYTQKSLSLSPGGGGGSAESKYGPPCPPCPA
1410
